- protocol.conditions: [M+Na]+; instrument: DT; stepped-field
recorded.endpoint: collision cross section (N2) (Å²)
The figure you give is taken to be in Å²; do not add the unit.

query: What value of collision cross section (N2) has been reported for the following compound? CC(=O)NC1C(OC2C(O)C(CO)OC(OC(C(O)CO)C(O)C(O)C=O)C2O)OC(CO)C(O)C1O (centres undefined)
result: 220

query: What value of collision cross section (N2) has been reported for the following compound? OC[C@H]1O[C@H](O[C@H]2[C@H](O)[C@@H](O)[C@@H](O[C@H]3[C@H](O)[C@@H](O)[C@@H](O[C@H]4[C@H](O)[C@@H](O)[C@@H](O[C@H]5[C@H](O)[C@@H](O)[C@@H](O[C@H]6[C@H](O)[C@@H](O)[C@@H](O[C@H]7[C@H](O)[C@@H](O)[C@@H](O)O[C@@H]7CO)O[C@@H]6CO)O[C@@H]5CO)O[C@@H]4CO)O[C@@H]3CO)O[C@@H]2CO)[C@H](O)[C@@H](O)[C@@H]1O
result: 303.1

query: What value of collision cross section (N2) has been reported for the following compound? CCCCCCCCCCCCC=CC[C@@H](O)[C@H](COP(=O)([O-])OCC[N+](C)(C)C)NC(=O)CCCCCCCCCCCCCCCCCCCCC
result: 303.9

query: What value of collision cross section (N2) has been reported for the following compound? CC/C=C\C/C=C\C/C=C\C/C=C\C/C=C\C/C=C\CCC(=O)OC[C@H](COP(=O)(O)OC[C@H](N)C(=O)O)OC(=O)CCC/C=C\C/C=C\C/C=C\C/C=C\C/C=C\CC
result: 294.2

###

- protocol.conditions: [M+NH4]+; instrument: DT; single field, calibrated with Agilent tune mix (Agilent)
Assignment: determine reported collision cross section (N2) for the given compounds.
The figure you give is taken to be in Å²; do not add the unit.

query: What value of collision cross section (N2) has been reported for the following compound? CCCCC/C=C\C/C=C\CCCCCCCCCC(=O)O[C@H](COC(=O)CCCCCCCCCCCC)COC(=O)CCCCCCCCCCCCCCCCCCCCC
result: 329.2

query: What value of collision cross section (N2) has been reported for the following compound? CCCCCCCCC/C=C\CCCCCCCC(=O)OC[C@@H](COC(=O)CCCCCCCCCCCC)OC(=O)CCCCCCC/C=C\CCCCCCCCC
result: 317.2

query: What value of collision cross section (N2) has been reported for the following compound? CCCC/C=C\C/C=C\CCCCCCCC(=O)OC[C@H](COC(=O)CCCCCCCCCCCCCCCCCCCCC)OC(=O)CCCCCCCCC/C=C\CCCCCCCC
result: 337.6

query: What value of collision cross section (N2) has been reported for the following compound? CC/C=C\C/C=C\C/C=C\C/C=C\CCCCC(=O)OC[C@H](COP(=O)(O)O)OC(=O)CCCCCCCCC/C=C\CCCCCCCC
result: 277.2

query: What value of collision cross section (N2) has been reported for the following compound? CC/C=C\C/C=C\C/C=C\C/C=C\CCCCC(=O)OC[C@H](COP(=O)(O)OC[C@@H](O)CO)OC(=O)CCCCCCCCCCCCCCCCC
result: 283.4

query: What value of collision cross section (N2) has been reported for the following compound? CC/C=C\C/C=C\C/C=C\C/C=C\C/C=C\C/C=C\CCC(=O)O[C@@H](CO)COC(=O)CCCCCCCCCCCCCCCCCCC
result: 280.3

query: What value of collision cross section (N2) has been reported for the following compound? CCCC/C=C\CCCCCCCC(=O)OC[C@H](COP(=O)(O)O)OC(=O)CCCCCCCCCCCCCCCCCCCCC
result: 277.7

query: What value of collision cross section (N2) has been reported for the following compound? CCCCCCCC/C=C\CCCCCCCC(=O)OC[C@@H](COC(=O)CCCCCCCCCCC)OC(=O)CCCCCCC/C=C\CCCCCCCC
result: 308.3

query: What value of collision cross section (N2) has been reported for the following compound? CCCCCCCC/C=C\CCCCCCCCCC(=O)O[C@H](COC(=O)CCCCCCCCCCCCC)COP(=O)(O)O
result: 271.2

query: What value of collision cross section (N2) has been reported for the following compound? CC/C=C\C/C=C\C/C=C\C/C=C\C/C=C\C/C=C\CCC(=O)OC[C@@H](COC(=O)CCCCCCC/C=C\CCCCCCCCC)OC(=O)CCCCCCC/C=C\CCCCCCCCC
result: 338.1

query: What value of collision cross section (N2) has been reported for the following compound? CC/C=C\C/C=C\C/C=C\C/C=C\CCCCC(=O)OC[C@H](COP(=O)(O)O[C@H]1C(O)C(O)C(O)[C@@H](O)C1O)OC(=O)CCCCCCCCCCCCCCCCCCC (some centres not stated)
result: 304

query: What value of collision cross section (N2) has been reported for the following compound? CC/C=C\C/C=C\C/C=C\C/C=C\C/C=C\C/C=C\CCC(=O)OC[C@@H](COC(=O)CCCC/C=C\C/C=C\C/C=C\C/C=C\CC)OC(=O)CCCCCCCC/C=C\C/C=C\C/C=C\CCCCC
result: 335.7

Ref: the C3SDB collision cross section collection
